Tested on: BT-474
Experiment: drug sensitivity score (DSS), CellTiter-Blue viability (DSS (AUC-based score)); higher = stronger viability inhibition; extreme values may be limits of the assay
Condition Label: incubation time: 72 h
drug sensitivity score listing for selected molecules.
Respond with the number and no other words.

Check out these entries, answers already filled in.
molecule="CCc1c2c(nc3ccc(OC(=O)N4CCC(N5CCCCC5)CC4)cc13)-c1cc3c(c(=O)n1C2)COC(=O)[C@]3(O)CC [Irinotecan]" observed_measurement=0
molecule="CO[C@H]1C[C@@H]2CC[C@@H](C)[C@@](O)(O2)C(=O)C(=O)N2CCCC[C@H]2C(=O)O[C@H]([C@H](C)C[C@@H]2CC[C@@H](OP(C)(C)=O)[C@H](OC)C2)CC(=O)[C@H](C)/C=C(\\C)[C@@H](O)[C@@H](OC)C(=O)[C@H](C)C[C@H](C)/C=C/C=C/C=C/1C [Ridaforolimus]" observed_measurement=14.5
molecule="COc1cc(OC2CCN(C)CC2)ccc1Nc1ncc2c(n1)n(C1CCCC1)c(=O)n2C [AZ 3146]" observed_measurement=0
molecule=Cc1cc(Nc2cc(CN3CCOCC3)c3nc(C)c(Cc4ccc(Cl)cc4F)n3n2)n[nH]1 observed_measurement=3.02
molecule="Oc1ccc2c(c1)CC[C@H](c1ccccc1)[C@@H]2c1ccc(OCCN2CCCC2)cc1 [Lasofoxifene]" observed_measurement=0

// recorded drug sensitivity score for O=P1(N(CCCl)CCCl)NCCCO1 (stereo unspecified) [Cyclophosphamide] : 0

---

Test system: MDA-MB-453
Condition Label: 72 h
EC50, CellTiter-Blue viability listing for selected molecules.
// return numeric value only (unit: µM, not printed)

molecule="CNC(=O)c1cc(Oc2ccc(NC(=O)Nc3ccc(Cl)c(C(F)(F)F)c3)c(F)c2)ccn1 [Regorafenib]" observed_measurement=2.74
molecule="CN(C)c1nc(N(C)C)nc(N(C)C)n1 [Altretamine]" observed_measurement=6.88
molecule="Cc1ccc(NC(=O)c2ccc(CN3CCN(C)CC3)cc2)cc1Nc1nc(-c2cccnc2)cs1 [Masitinib]" observed_measurement=4.58
molecule="CN(C)CCOc1ccc(/C(=C(/CCCl)c2ccccc2)c2ccccc2)cc1 [Toremifene]" observed_measurement=7.24
molecule="Cc1[nH]c2ccccc2c1CCNCc1ccc(/C=C/C(=O)NO)cc1 [Panobinostat]" observed_measurement=0.00443

// recorded EC50, CellTiter-Blue viability for COC(=O)c1ccc2c(c1)NC(=O)/C2=C(\Nc1ccc(N(C)C(=O)CN2CCN(C)CC2)cc1)c1ccccc1 [BIBF 1120] : 3.18

// recorded EC50, CellTiter-Blue viability for CC(C)C[C@@H](C(=O)N[C@H](C(=O)OC1CCCC1)c1ccccc1)[C@H](O)C(=O)NO [Tosedostat] : 0.0863

// recorded EC50, CellTiter-Blue viability for COc1cc(OC2CCN(C)CC2)ccc1Nc1ncc2c(n1)n(C1CCCC1)c(=O)n2C [AZ 3146] : 6.4

// recorded EC50, CellTiter-Blue viability for O=C(/C=C/c1cccc(S(=O)(=O)Nc2ccccc2)c1)NO [Belinostat] : 0.125

---

System: DU-4475
Experiment: normalised viability (% of control), CellTiter-Blue; higher = more viable cells (about 100 = DMSO control)
Condition Label: incubation time: 72 h
normalised viability listing for selected compounds.
// return numeric value only (unit: %, not printed)

Check out these entries, answers already filled in.
compound="COc1cc2/c(=N/c3ccc(Br)cc3F)nc[nH]c2cc1OCC1CCN(C)CC1 [Vandetanib] (1000 nM)" readout_name="normalised viability" units_label=% observed_measurement=105
compound="CNC(=O)c1cc(Oc2ccc(NC(=O)Nc3ccc(Cl)c(C(F)(F)F)c3)c(F)c2)ccn1 [Regorafenib] (1000 nM)" readout_name="normalised viability" units_label=% observed_measurement=97.6
compound="O=C(/C=C/c1cccc(S(=O)(=O)Nc2ccccc2)c1)NO [Belinostat] (1000 nM)" readout_name="normalised viability" units_label=% observed_measurement=33.3

// recorded normalised viability for COCC[n+]1c2c(n(Cc3cnccn3)c1C)C(=O)c1ccccc1C2=O [YM155] (1000 nM) : 1.98
